Target or system: α7 NNR (UniProt Q05941)
Assay conditions: [3H]-DPPB binding

Compound	Ki / nM
COc1ccc(-c2cnc(N3CC4CC5CC3CN(C5)C4)s2)cc1 (centres unmarked)	133
c1cc(-c2cncc(N3CC4CC5CC3CN(C5)C4)c2)c2cc[nH]c2c1 (centres unmarked)	26.3
O=S1(=O)c2ccccc2-c2ccc(N3CC4CC5CC3CN(C5)C4)cc21 (centres unmarked)	2.3
O=C(c1n[nH]c2ccccc12)N1CC2CC3CC1CN(C3)C2 (centres unmarked)	23.6
Fc1ccc(-c2cnc(N3CC4CC5CC3CN(C5)C4)s2)cc1 (centres unmarked)	53.6

----------
Target or system: α7 NNR (UniProt Q05941)
pKi: −log10 of the molar value.
Quick rule: pKi of at least 7 means 1, below that means -1.

Compound	Group label
O=C(c1cc2ccsc2cn1)N1CC2CC3CC1CN(C3)C2 (stereo not shown) [Example 3]	1
O=C(c1ccc2sccc2n1)N1CC2CC3CC1CN(C3)C2 (stereo not shown) [Example 4]	-1
c1ccc2sc(N3CC4CC5CC3CN(C5)C4)nc2c1 (stereo not shown) [Example 113]	-1
Fc1cccc(-c2cnc(N3CC4CC5CC3CN(C5)C4)s2)c1 (stereo not shown) [Example 108]	1
c1cc2cc(-c3ccc(N4CC5CC6CC4CN(C6)C5)nn3)ccc2s1 (stereo not shown) [Example 8]	1
Cc1ccc(-c2cnc(N3CC4CC5CC3CN(C5)C4)s2)cc1 (stereo not shown) [Example 106]	1
Clc1ccc2nc(N3CC4CC5CC3CN(C5)C4)oc2c1 (stereo not shown) [Example 112]	1
O=C1NC2CC3CC1CN(C3)C2 (stereo not shown) [Example 1]	-1
O=C(c1ccc2[nH]ccc2c1)N1CC2CC3CC1CN(C3)C2 (stereo not shown) [Example 37]	-1
